Tested on: SK-MEL-28 melanoma
assay protocol: NCI tumour cell line growth inhibition, 48 h
attribute measured: TGI (µM)
# value in µM; strip the unit string

COc1ccc(-c2cc(/C=C3\C(=O)Nc4ccc(Cl)cc43)[nH]n2)cc1 | 19.5

Request: Fill in the blank: the reported TGI of `Clc1ccc2[nH]cc(-c3nc(-c4c[nH]c5ncccc45)cs3)c2c1` is ____.
Response: 20.1

Request: How about this compound: `O=C1CSC(/C(=C\c2ccc(Cl)cc2)c2nc3ccccc3[nH]2)=N1`
Response: 32.6

Request: How about this compound: `O=c1nc(Nc2cccc(Cl)c2)oc2cc(Cl)oc(=O)c12`
Response: 22.7

Request: How about this compound: `O=C(/C=C/c1cccc(Br)c1)c1cccs1`
Response: 32.9
